Test: Solubility studies of compound I
Assay type: physicochemical
Conditions: castor oil, oil or lipid, Castor Oil; read-out: Solubility
endpoint: solubility (µg/mL)
Numeric answer only, unit µg/mL assumed.

The reported value for `C#CCOc1ccc(Nc2nc(Nc3ccc(C)c(S(N)(=O)=O)c3)ncc2F)cc1` in terms of solubility is 7400

---

Assay: Solubility studies of compound I
Assay type: physicochemical
Conditions: triglyceride, oil or lipid, Triglyceride; read-out: Solubility
Structures can show the parent of a compound that is named as a salt.
endpoint: solubility (µg/mL)
Numeric answer only, unit µg/mL assumed.

The reported value for C#CCOc1ccc(Nc2nc(Nc3ccc(C)c(S(N)(=O)=O)c3)ncc2F)cc1 [Compound I HCl] in terms of solubility is 20

---

Test: Solubility studies of compound I
Assay type: physicochemical
Conditions: oleyl alcohol, oil or lipid, Oleyl alcohol; read-out: Solubility
Where a name gives a salt, the structure may show the parent alone.
endpoint: solubility (µg/mL)
Numeric answer only, unit µg/mL assumed.

The reported value for C#CCOc1ccc(Nc2nc(Nc3ccc(C)c(S(N)(=O)=O)c3)ncc2F)cc1 [Compound I HCl] in terms of solubility is 200

---

Assay: Solubility studies of compound I
Type: physicochemical
Conditions: 40% TPGS/60% PEG400, organic solvent or mixture, 40% TPGS/60% PEG400; read-out: Solubility
Structures can show the parent of a compound that is named as a salt.
endpoint: solubility (µg/mL)
Numeric answer only, unit µg/mL assumed.

The reported value for C#CCOc1ccc(Nc2nc(Nc3ccc(C)c(S(N)(=O)=O)c3)ncc2F)cc1 [Compound I HCl] in terms of solubility is 1700

---

Test: Solubility studies of compound I
Type: physicochemical
Conditions: 20% EtOH-80% PEG400, organic solvent or mixture, 20% EtOH-80% PEG400; read-out: Solubility
endpoint: solubility (mg/mL)
Numeric answer only, unit mg/mL assumed.

The reported value for `C#CCOc1ccc(Nc2nc(Nc3ccc(C)c(S(N)(=O)=O)c3)ncc2F)cc1` in terms of solubility is 126

Where do the numbers come from? From patent US9040061B2.
